Record form. Attribute: BUN. Fill in for each entry.
species: Rattus norvegicus; assay: Open TG-GATES - Regimen: Daily Repeat; format: toxicity, organism-based, Sprague-Dawley; set-up: regimen Daily Repeat, gender Male, age 6 weeks; settings: in vivo, po, 1000 mg/kg, […], tissue Plasma, route gavage, dose level High, time 7 day
I only need the number, in mg/dL, no unit after it.

Prompt line: Hello, please tell me recorded BUN for this one: O=C(O)c1cccnc1
Response line: 15.8

Prompt line: Hello, please tell me recorded BUN for this one: O=C(N[C@H](CO)[C@H](O)c1ccc([N+](=O)[O-])cc1)C(Cl)Cl
Response line: 15.8

Prompt line: Hello, please tell me recorded BUN for this one: CCN1CCCC1CNC(=O)c1cc(S(N)(=O)=O)ccc1OC (centres undefined) [SULPIRIDE]
Response line: 16.4

Prompt line: Hello, please tell me recorded BUN for this one: CC(C)(S)[C@@H](N)C(=O)O
Response line: 15.2

* * *

species: Rattus norvegicus; assay: Open TG-GATES - Regimen: Daily Repeat; format: toxicity, organism-based, Sprague-Dawley; design: regimen Daily Repeat, gender Male, age 6 weeks; details: in vivo, po, 0 mg/kg, […], tissue Plasma, route gavage, dose level Control, time 7 day
Record form. Attribute: IP. Fill in for each entry.
I only need the number, in mg/dL, no unit after it.

Prompt line: Hello, please tell me recorded IP for this one: O=C(O)c1cccnc1
Response line: 7.4

Prompt line: Hello, please tell me recorded IP for this one: CCSCC[C@H](N)C(=O)O
Response line: 7.6

Prompt line: Hello, please tell me recorded IP for this one: CCc1oc2ccccc2c1C(=O)c1cc(I)c(O)c(I)c1
Response line: 6.9

Prompt line: Hello, please tell me recorded IP for this one: CC(C)C(=O)Nc1ccc([N+](=O)[O-])c(C(F)(F)F)c1 [FLUTAMIDE]
Response line: 6.8

Prompt line: Hello, please tell me recorded IP for this one: C[C@]12CCC(=O)C=C1CC[C@@H]1[C@@H]2CC[C@@]2(C)[C@H]1CC[C@]2(C)O
Response line: 7.5

Prompt line: Hello, please tell me recorded IP for this one: CC(=N)S [THIOACETAMIDE]
Response line: 7.1

Prompt line: Hello, please tell me recorded IP for this one: C[C@](N)(Cc1ccc(O)c(O)c1)C(=O)O
Response line: 6.9

Prompt line: Hello, please tell me recorded IP for this one: CCC(C)(C)C(=O)O[C@H]1C[C@@H](C)C=C2C=C[C@H](C)[C@H](CC[C@@H]3C[C@@H](O)CC(=O)O3)[C@H]21
Response line: 7.1

Prompt line: Hello, please tell me recorded IP for this one: CCN1CCCC1CNC(=O)c1cc(S(N)(=O)=O)ccc1OC (stereo not given) [SULPIRIDE]
Response line: 7.7

Prompt line: Hello, please tell me recorded IP for this one: CC(=O)Oc1cc(C(C)C)c(OCCN(C)C)cc1C
Response line: 6.7

Prompt line: Hello, please tell me recorded IP for this one: Nc1nc(N)c2nc(-c3ccccc3)c(N)nc2n1
Response line: 7.7

Prompt line: Hello, please tell me recorded IP for this one: Oc1ncnc2[nH]ncc12
Response line: 7.7

Prompt line: Hello, please tell me recorded IP for this one: CC(C)(S)[C@@H](N)C(=O)O
Response line: 6.6

Prompt line: Hello, please tell me recorded IP for this one: O=C(N[C@H](CO)[C@H](O)c1ccc([N+](=O)[O-])cc1)C(Cl)Cl
Response line: 7.5

Prompt line: Hello, please tell me recorded IP for this one: CN1C(=O)OC(C)(C)C1=O
Response line: 6.9
